Experiment: Basic coloration test
Format: physicochemical
Conditions: with water and potassium hydroxide, heat treatment at 90° C. for one hour, cooled to room temperature; spectral colorimeter
Measurement label: Color saturation (b*)
Please reply with the number alone, leaving off any unit.

Record excerpt, results attached:
Compound	Color saturation (b*)
CC(O)CCO (stereo not shown) [Example 2, 1,3-butylene glycol]	3.2
CC(O)CCO (stereo not shown) [Example 1, 1,3-butylene glycol]	2.8
CC(O)CCO (stereo not shown) [Comparative Example 1, 1,3-butylene glycol]	19.6

Now let's try a different one.
Can you look up the measured Color saturation (b*) of CC(O)CCO (stereo not shown) [Example 3, 1,3-butylene glycol] for me?
0.7
